Biological target: dopamine D-1 receptor (Rattus norvegicus, UniProt P18901)
Sequence (P18901 whole entry): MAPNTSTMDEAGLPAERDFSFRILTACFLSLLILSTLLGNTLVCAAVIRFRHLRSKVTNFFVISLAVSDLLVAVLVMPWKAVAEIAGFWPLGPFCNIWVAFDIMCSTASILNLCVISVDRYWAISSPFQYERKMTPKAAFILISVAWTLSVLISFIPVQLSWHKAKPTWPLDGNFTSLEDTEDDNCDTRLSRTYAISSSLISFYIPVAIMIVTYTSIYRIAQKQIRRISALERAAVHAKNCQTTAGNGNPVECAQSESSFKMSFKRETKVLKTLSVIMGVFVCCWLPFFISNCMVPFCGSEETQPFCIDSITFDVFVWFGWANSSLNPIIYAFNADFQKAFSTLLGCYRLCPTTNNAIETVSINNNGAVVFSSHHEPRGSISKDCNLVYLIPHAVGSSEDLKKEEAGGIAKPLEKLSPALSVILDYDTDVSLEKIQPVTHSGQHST
Assay: biochemical
Conditions: D-1 Ki, rat caudate, [125I]SCH-23982
pKi: −log10 of the molar value.
Please enter condition met where pKi is greater than or equal to 7, and condition not met where it is lower.

Problem: Identify whether the reported pKi of the following compound is 7 or greater: CN1CCC2=C(C1)c1ccc(O)c(O)c1CC21CCCCC1 [Example 212]
Result: condition not met

Problem: Is pKi for NCC1CC2(CCCCCC2)Cc2c1ccc(O)c2O (centres unmarked) [Example 193] at or above 7?
Result: condition not met

Problem: Record NC[C@@H]1O[C@H](CCC2CCCCC2)Cc2c1ccc(O)c2O (relative stereo) [Example 91] ; criterion: pKi no lower than 7. Met?
Result: condition not met

Problem: Could you verify whether the entry Oc1ccc2c(c1O)CC1(CCCCCCCC1)C1=C2CNCC1 [Example 241] shows pKi of no less than 7?
Result: condition not met

Problem: Check the entry CN(C)C[C@@H]1O[C@H](c2ccccc2)Cc2c1ccc(O)c2O (relative stereo) [Example 227] : does pKi equal or exceed 7?
Result: condition met

Problem: Can NC[C@H]1O[C@@H](c2cccc(C(F)(F)F)c2)Cc2c1ccc(O)c2O (relative stereo) [Example 99] be said to have pKi at or above 7?
Result: condition met

Problem: Evaluate NC[C@@H]1O[C@H](c2ccc(I)cc2)Cc2c1ccc(O)c2O (relative stereo) [Example 80] : pKi at minimum 7?
Result: condition met

Problem: Say whether Oc1ccc2c(c1O)C[C@@H](c1ccccc1)O[C@H]2[C@@H]1CCCN1 [Example 124] shows pKi of 7 or more.
Result: condition not met

Problem: Identify whether the reported pKi of the following compound is 7 or greater: NCC1OC2(CCCCC2)Cc2c1ccc(O)c2O (centres unmarked) [Example 52]
Result: condition not met

Problem: Is reported pKi greater than or equal to 7 here: CNC[C@@H]1O[C@H](CC23CC4CC(CC(C4)C2)C3)Cc2c1ccc(O)c2O (relative stereo) [Example 139]
Result: condition not met

Problem: Is pKi for CCC(C)C(C)[C@@H]1Cc2c(ccc(O)c2O)[C@H](CN)O1 (some centres unmarked) [Example 72] at or above 7?
Result: condition met

Problem: Determine whether this compound has pKi no lower than 7: CC(C)C(=O)NC[C@H]1Cc2c(ccc(O)c2O)[C@@H](CN)O1 (relative stereo) [Example 171]
Result: condition not met

Problem: Answer whether pKi of CC(C)(C)CC1C=C(CN)c2ccc(O)c(O)c2C1 (centres unmarked) [Example 233] is greater than or equal to 7.
Result: condition not met

Problem: API: above_or_equal(metric=pKi, cutoff=7) for item NC[C@H]1C[C@@H](c2ccc3ccccc3c2)Cc2c1ccc(O)c2O (relative stereo) [Example 43]
Result: condition not met

Problem: State whether the measured pKi reaches 7, counting equality as reaching it, for COc1ccc(OC[C@H]2Cc3c(ccc(O)c3O)[C@@H](CN)O2)cc1 (relative stereo) [Example 53]
Result: condition not met
